Target: CFTR-G178R (Homo sapiens, UniProt P13569, G178R)
Sequence (P13569 whole entry G178R): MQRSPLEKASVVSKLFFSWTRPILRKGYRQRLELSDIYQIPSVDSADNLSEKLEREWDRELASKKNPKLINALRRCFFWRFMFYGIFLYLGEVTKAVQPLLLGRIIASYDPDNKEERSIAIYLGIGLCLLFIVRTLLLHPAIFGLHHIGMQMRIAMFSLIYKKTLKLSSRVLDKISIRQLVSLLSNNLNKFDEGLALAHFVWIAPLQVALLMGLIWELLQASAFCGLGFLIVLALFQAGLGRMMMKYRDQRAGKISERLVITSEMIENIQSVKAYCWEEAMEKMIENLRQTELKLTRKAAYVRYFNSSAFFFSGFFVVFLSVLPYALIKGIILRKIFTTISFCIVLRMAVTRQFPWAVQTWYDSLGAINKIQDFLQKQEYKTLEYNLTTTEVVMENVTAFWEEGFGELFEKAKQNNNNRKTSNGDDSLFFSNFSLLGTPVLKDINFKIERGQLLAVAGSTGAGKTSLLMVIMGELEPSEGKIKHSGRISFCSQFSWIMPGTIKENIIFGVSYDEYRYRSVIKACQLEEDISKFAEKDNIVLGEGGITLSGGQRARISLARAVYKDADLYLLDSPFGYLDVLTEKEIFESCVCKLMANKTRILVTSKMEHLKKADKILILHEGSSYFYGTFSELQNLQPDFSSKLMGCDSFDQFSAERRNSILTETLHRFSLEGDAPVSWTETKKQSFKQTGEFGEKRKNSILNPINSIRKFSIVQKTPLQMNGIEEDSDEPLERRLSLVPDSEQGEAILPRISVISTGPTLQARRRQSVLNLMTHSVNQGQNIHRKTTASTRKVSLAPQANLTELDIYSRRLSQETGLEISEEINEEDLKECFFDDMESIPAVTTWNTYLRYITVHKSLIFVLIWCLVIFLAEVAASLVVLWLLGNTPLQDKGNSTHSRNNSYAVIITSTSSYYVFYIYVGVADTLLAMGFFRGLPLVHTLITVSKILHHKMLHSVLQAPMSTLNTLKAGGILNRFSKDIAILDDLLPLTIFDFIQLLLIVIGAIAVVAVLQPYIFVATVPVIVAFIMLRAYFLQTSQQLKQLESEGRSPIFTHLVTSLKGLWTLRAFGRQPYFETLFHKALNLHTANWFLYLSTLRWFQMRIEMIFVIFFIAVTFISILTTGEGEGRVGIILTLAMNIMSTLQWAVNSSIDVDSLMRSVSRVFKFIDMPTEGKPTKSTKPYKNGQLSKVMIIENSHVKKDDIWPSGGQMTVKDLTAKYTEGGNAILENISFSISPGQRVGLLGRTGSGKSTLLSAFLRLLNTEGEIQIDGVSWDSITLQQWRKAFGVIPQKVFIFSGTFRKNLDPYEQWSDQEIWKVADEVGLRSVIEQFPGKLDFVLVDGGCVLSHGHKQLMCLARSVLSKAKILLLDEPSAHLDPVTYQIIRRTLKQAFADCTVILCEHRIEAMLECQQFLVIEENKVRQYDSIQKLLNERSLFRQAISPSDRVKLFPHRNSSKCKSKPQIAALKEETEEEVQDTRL
Test: YFP-halide influx assay for the CFTR-G178R
Experimental: The YFP halide influx assay measured the functionality of the cystic fibrosis Transmembrane Conductance regulator (CFTR) channels. The assay was used to evaluate the capacity of compounds to increase the channel opening of existing mutant CFTR channels in the membrane. […] The I^−-induced quenching of fluorescence was recorded immediately after injection of I^− for 7 seconds. […]
measured-metric: EC50 (nM)

- compound: "Nc1cc(S(=O)(=O)N2CCC(C(F)(F)F)CC2)cnc1C(=O)NCC(O)C(F)(F)F (centres unmarked)"
  EC50 (nM): 226
- compound: "CC(C)OCC(O)CNC(=O)c1ncc(S(=O)(=O)c2ccc(C(F)(F)F)cc2)cc1N (centres unmarked)"
  EC50 (nM): 145
- compound: "Nc1cc(S(=O)(=O)c2ccc(OC(F)(F)F)cc2)cnc1C(=O)Nc1cc[nH]n1"
  EC50 (nM): 109
- compound: "CC(C)(O)CNC(=O)c1ncc(S(=O)(=O)c2ccc(OC(F)(F)F)cc2)cc1N"
  EC50 (nM): 302
- compound: "Nc1cc(S(=O)(=O)c2ccc(OC(F)(F)F)cc2)cnc1C(=O)N1CC(O)C1"
  EC50 (nM): 522
- compound: "Nc1cc(S(=O)(=O)c2ccccc2OC(F)(F)F)cnc1C(=O)N1CC(O)(C(F)(F)F)C1"
  EC50 (nM): 3.29
- compound: "COC[C@H](O)CNC(=O)c1ncc(S(=O)(=O)c2ccccc2OC(F)(F)F)cc1N"
  EC50 (nM): 77.8
- compound: "CC(O)(CNC(=O)c1ncc(S(=O)(=O)c2ccc(OC(F)(F)F)cc2)cc1N)C(F)(F)F (centres unmarked)"
  EC50 (nM): 494

I: Nc1cc(S(=O)(=O)c2ccc(C(F)(F)F)cc2)cnc1C(=O)NCCO
II: Nc1cc(S(=O)(=O)c2ccc(OC(F)(F)F)cc2)cnc1C(=O)N1CC(O)(C(F)(F)F)C1
Pick one: I or II . Which has the bigger EC50 number? API: response body contains the label of the selected item.
I
(I: 933 nM, II: 31.3 nM)

A: Nc1cc(S(=O)(=O)c2ccc(C(F)(F)F)cc2)cnc1C(=O)N1CC(OCC(F)F)C1
B: Nc1cc(S(=O)(=O)c2ccc(F)cc2)cnc1C(=O)N1CC(O)(C(F)(F)F)C1
Returns: the label, A or B , whose recorded EC50 is the lower number. Please identify the chosen entry by its label.
B

I: Nc1cc(S(=O)(=O)c2ccc(F)cc2)c(-c2ccc(F)cc2)nc1C(=O)NC[C@@H](O)C(F)(F)F
II: COCC(O)CNC(=O)c1ncc(S(=O)(=O)c2ccccc2OC(F)(F)F)cc1N (centres unmarked)
Lower EC50: I or II ? Give the label under which the chosen entry appears.
II

A: Nc1cc(S(=O)(=O)c2ccc(F)cc2)cnc1C(=O)NC[C@H](O)C(F)(F)F
B: Nc1cc(S(=O)(=O)c2ccccc2OC(F)(F)F)cnc1C(=O)N1CC(F)(F)C1
// select label with min value of measured EC50 from [ A , B ] Lab log: write the label of the selected item as the result.
B
(B: 58.1 nM, A: 211 nM)

1: CC(C)(O)CNC(=O)c1ncc(S(=O)(=O)c2ccc(C(F)(F)F)cc2)cc1N
2: Nc1cc(S(=O)(=O)c2ccc(OC(F)(F)F)cc2)cnc1C(=O)NCCO
// which entry reports the smaller EC50, 1 or 2 ? Kindly state the label of the option you pick.
1

A: Nc1cc(S(=O)(=O)c2ccc(F)cc2)cnc1C(=O)NC[C@@H](O)C(F)(F)F
B: Nc1cc(S(=O)(=O)c2ccc(OC(F)(F)F)cc2)cnc1C(=O)N[C@@H]1COC[C@H]1O (racemic)
Consider A and B . Which of these has its EC50 at a higher number? I would appreciate it if you answered with the label of your choice.
B

a: Nc1cc(S(=O)(=O)c2ccc(OC(F)(F)F)cc2)cnc1C(=O)N1CC(F)(F)C1
b: C[C@H](O)CNC(=O)c1ncc(S(=O)(=O)c2ccccc2OC(F)(F)F)cc1N
Parameter metric = EC50. Return the lower-valued option from a and b . Respond using the label that marks the chosen record.
b
(b: 84.7 nM, a: 392 nM)

P: Nc1cc(S(=O)(=O)c2ccc(C(F)(F)F)cc2)cnc1C(=O)NCC(F)(F)CO
Q: Nc1cc(S(=O)(=O)c2ccc(OC(F)(F)F)cc2)cnc1C(=O)NCC(O)C(F)(F)F (centres unmarked)
R: Nc1cc(S(=O)(=O)c2ccc(OC(F)(F)F)cc2)cnc1C(=O)N1CC(O)(C2CC2)C1
S: Nc1cc(S(=O)(=O)c2ccc(OC(F)(F)F)cc2)cnc1C(=O)NCC(O)COCC1CC1 (centres unmarked)
List by increasing EC50. Kindly provide the labels arranged according to the requested ordering.
R, Q, S, P
(R: 32.5 nM, Q: 80.7 nM, S: 348 nM, P: 502 nM)
